test system: ACHN; assay: NCI tumour cell line growth inhibition, 48 h
Calls of active or inactive are those of the source. No stated cut-off is given here; in the data, active = GI50 up to about 1.1 µM and inactive = higher.
MEASURED ENDPOINT: GI50

Q: Record lookup: for ACHN, what GI50 belongs to Cc1ccc(C2=[N+]([O-])c3ccccc3C2=O)cc1 ?
Ans: 16 µM (inactive)

Q: Record lookup: for ACHN, what GI50 belongs to CCOC(=O)c1nc2cc(C(F)(F)F)ccc2nc1Nc1cc(OC)c(OC)c(OC)c1 ?
Ans: > 100 µM (inactive)

Q: Record lookup: for ACHN, what GI50 belongs to O=C(OCc1ccccc1)n1cccc1 ?
Ans: > 100 µM (inactive)

Q: Record lookup: for ACHN, what GI50 belongs to Cc1ccc(Nc2nc(=O)c3c([nH]c4ccccc43)s2)cc1 ?
Ans: 16.2 µM (inactive)
